CE complexation efficiency for assorted compounds
# assay summary: Phase solubility studies with HP-β-CD
# Assay type: physicochemical
# test parameters: 25 °C, pH 8.5, with HP-β-CD
Quick note: give the figure in %, leave out the unit.

Some compounds with recorded CE complexation efficiency:
Q) Report CE complexation efficiency for COc1ccc(C2C/C(=N\NC(=O)c3ccncc3)c3c(O)cc(O)cc3O2)cc1O (racemic) [HIN] please.
A) 1.3

Q) What does the record list as CE complexation efficiency for COc1ccc(C2C/C(=N\NC(=O)c3ccccc3)c3c(O)cc(O)cc3O2)cc1O (racemic) [HHSB] ?
A) 0.7

Q) Fill in: CE complexation efficiency of COc1ccc(C2CC(=NNC(N)=S)c3c(O)cc(O)cc3O2)cc1O (stereo not shown) [HTSC] is ___
A) 0.1

More entries:
Q) Which measured CE complexation efficiency value corresponds to COc1ccc(C2CC(=O)c3c(O)cc(O)cc3O2)cc1O (stereo not shown) [Hesperetin, 3′,5,7-Trihydroxy-4′-methoxyflavanone] ?
A) 80.4

###

CE complexation efficiency for assorted compounds
# assay summary: Phase solubility studies with HP-β-CD
# Type: physicochemical
# test parameters: 25 °C, pH 3.6, with HP-β-CD
Give just the numeric value; % need not be written.

Would you please look over these solved cases?
Q) Quick one: CE complexation efficiency for COc1ccc(C2CC(=O)c3c(O)cc(O)cc3O2)cc1O (stereo not shown) [Hesperetin, 3′,5,7-Trihydroxy-4′-methoxyflavanone] ?
A) 34.7

Q) Form field: reported CE complexation efficiency of COc1ccc(C2C/C(=N\NC(=O)c3ccccc3)c3c(O)cc(O)cc3O2)cc1O (racemic)
A) 1.4

Q) What value of CE complexation efficiency has been recorded for this entry: COc1ccc(C2CC(=NNC(N)=S)c3c(O)cc(O)cc3O2)cc1O (stereo not shown)
A) 0.07

Continuing:
Q) Entry COc1ccc(C2C/C(=N\NC(=O)c3ccncc3)c3c(O)cc(O)cc3O2)cc1O (racemic) : reported CE complexation efficiency = ?
A) 0.7

###

# assay summary: Phase solubility studies with HP-β-CD
# Assay type: physicochemical
# test parameters: thermodynamic from solid; 60 °C, pH 6.5 sodium phosphate buffer, with HP-β-CD; read-out: S0 (solubility with HP-β-CD)
experimental readout: solubility at 60 min (µM)
Your answer should be a plain number; it is taken to be in µM.

Worked cases, answers included:
Q) Fill in: solubility at 60 min of COc1ccc(C2CC(=NNC(N)=S)c3c(O)cc(O)cc3O2)cc1O (stereo not shown) is ___
A) 180

Q) Could you share which solubility at 60 min value was measured for COc1ccc(C2C/C(=N\NC(=O)c3ccccc3)c3c(O)cc(O)cc3O2)cc1O (racemic) ?
A) 115

Q) Consider the compound COc1ccc(C2CC(=O)c3c(O)cc(O)cc3O2)cc1O (stereo not shown) [Hesperetin, 3′,5,7-Trihydroxy-4′-methoxyflavanone] and give its measured solubility at 60 min.
A) 96

Note: attention shifts to another entry.
Q) I have this compound here, COc1ccc(C2C/C(=N\NC(=O)c3ccncc3)c3c(O)cc(O)cc3O2)cc1O (racemic) , and I need its recorded solubility at 60 min.
A) 41

###

# assay summary: Phase solubility studies with HP-β-CD
# Assay type: physicochemical
# test parameters: aqueous buffer, thermodynamic from solid; 60 °C, pH 6.5 sodium phosphate buffer, without cyclodextrin; read-out: solubility without HP-β-CD (value in brackets) (converted)
Known solubility at 60 min of a selection of compounds
Report field: quantity (unit follows the number).

Here's what some known entries look like.
Q) I'd like to know its solubility at 60 min. The compound in question is COc1ccc(C2CC(=O)c3c(O)cc(O)cc3O2)cc1O (stereo not shown) [Hesperetin, 3′,5,7-Trihydroxy-4′-methoxyflavanone]
A) 82 µM

Q) Bench note: what solubility at 60 min did COc1ccc(C2C/C(=N\NC(=O)c3ccccc3)c3c(O)cc(O)cc3O2)cc1O (racemic) show?
A) 27 µM

Q) Look up solubility at 60 min: COc1ccc(C2CC(=NNC(N)=S)c3c(O)cc(O)cc3O2)cc1O (stereo not shown)
A) 160 µM

Note: attention shifts to another entry.
Q) Reported solubility at 60 min for COc1ccc(C2C/C(=N\NC(=O)c3ccncc3)c3c(O)cc(O)cc3O2)cc1O (racemic) : what is it?
A) 8 µM

###

# assay summary: Phase solubility studies with HP-β-CD
# Format: physicochemical
# test parameters: 60 °C, pH 3.6, with HP-β-CD
experimental readout: Kc complexation constant (M⁻¹)
Report the figure in M⁻¹ without appending any unit label.

Reference set (3 entries):
Q) For the molecule shown here, COc1ccc(C2CC(=O)c3c(O)cc(O)cc3O2)cc1O (stereo not shown) [Hesperetin, 3′,5,7-Trihydroxy-4′-methoxyflavanone] , give the reported Kc complexation constant.
A) 2566

Q) What does the data say about its Kc complexation constant? Entry: COc1ccc(C2CC(=NNC(N)=S)c3c(O)cc(O)cc3O2)cc1O (stereo not shown)
A) 28

Q) Fill in the blank: the reported Kc complexation constant of COc1ccc(C2C/C(=N\NC(=O)c3ccncc3)c3c(O)cc(O)cc3O2)cc1O (racemic) is ____.
A) 62

Shift focus to the following entry.
Q) Consider the molecule COc1ccc(C2C/C(=N\NC(=O)c3ccccc3)c3c(O)cc(O)cc3O2)cc1O (racemic) and give its measured Kc complexation constant.
A) 250

###

// solubility at 60 min lookup, one value per entry
# assay summary: Phase solubility studies with HP-β-CD
# Assay type: physicochemical
# test parameters: thermodynamic from solid; 37 °C, pH 3.6 sodium acetate buffer, with HP-β-CD; read-out: S0 (solubility with HP-β-CD)
Reply with just the number (in µM).

Before answering, review these 3 worked examples.
Q) Bench note: what solubility at 60 min did COc1ccc(C2CC(=O)c3c(O)cc(O)cc3O2)cc1O (stereo not shown) [Hesperetin, 3′,5,7-Trihydroxy-4′-methoxyflavanone] show?
A) 140

Q) Can you look up the measured solubility at 60 min of COc1ccc(C2C/C(=N\NC(=O)c3ccccc3)c3c(O)cc(O)cc3O2)cc1O (racemic) [HHSB] for me?
A) 50

Q) So what's the measured solubility at 60 min for this one? COc1ccc(C2C/C(=N\NC(=O)c3ccncc3)c3c(O)cc(O)cc3O2)cc1O (racemic) [HIN]
A) 90

---
Q) Which solubility at 60 min value belongs to COc1ccc(C2CC(=NNC(N)=S)c3c(O)cc(O)cc3O2)cc1O (stereo not shown) [HTSC] ?
A) 76

###

# assay summary: Phase solubility studies with HP-β-CD
# Type: physicochemical
# test parameters: 25 °C, pH 8.5, with HP-β-CD
# Protocol: The purpose of this part of the study was to determine the solubility of compounds of hesperetin and its Schiff bases (HHSB, HIN, and HTSC) in aqueous solution at different pHs and temperatures, and the effect of their inclusion in modified HP-β-CD on the aqueous solubility of these compounds at different pH values. […] Complexation efficiency was calculated from the slope of the phase solubility diagram using Equation (2):(2) CE=S0×Kc=slope/1−slope […]
Form field: Kc complexation constant (one value per entry).
Field format: number, assumed M⁻¹, no unit text.

Guide cases for Kc complexation constant, answers given:
Q) Name the recorded Kc complexation constant for COc1ccc(C2CC(=NNC(N)=S)c3c(O)cc(O)cc3O2)cc1O (stereo not shown) .
A) 12.5

Q) Requested field: Kc complexation constant. Item: COc1ccc(C2CC(=O)c3c(O)cc(O)cc3O2)cc1O (stereo not shown) [Hesperetin, 3′,5,7-Trihydroxy-4′-methoxyflavanone]
A) 2513

Q) Which Kc complexation constant reading was recorded for the molecule COc1ccc(C2C/C(=N\NC(=O)c3ccncc3)c3c(O)cc(O)cc3O2)cc1O (racemic) ?
A) 143

Turning now to a further record.
Q) Would you mind telling me what Kc complexation constant value was observed for COc1ccc(C2C/C(=N\NC(=O)c3ccccc3)c3c(O)cc(O)cc3O2)cc1O (racemic) ?
A) 150

###

# assay summary: ABTS^•+ radical cation decolorization assay
# test parameters: concentration 0.1 mg/mL, mean ± SD
Entries and their ABTS^•+ antioxidant activity values follow.

Look over these answered cases.
Q) Endpoint output: ABTS^•+ antioxidant activity of COc1ccc(C2C/C(=N\NC(=O)c3ccncc3)c3c(O)cc(O)cc3O2)cc1O (racemic) . Value?
A) 31.56 ± 1.6%

Q) // query ABTS^•+ antioxidant activity value for entry COc1ccc(C2CC(=O)c3c(O)cc(O)cc3O2)cc1O (stereo not shown) [Hesperetin, 3′,5,7-Trihydroxy-4′-methoxyflavanone]
A) 77.42 ± 2.2%

Q) Give the measured ABTS^•+ antioxidant activity of COc1ccc(C2CC(=NNC(N)=S)c3c(O)cc(O)cc3O2)cc1O (stereo not shown) .
A) 86.61 ± 4.6%

Attention now turns to another entry.
Q) State the recorded ABTS^•+ antioxidant activity for this entry: COc1ccc(C2C/C(=N\NC(=O)c3ccccc3)c3c(O)cc(O)cc3O2)cc1O (racemic)
A) 98.11 ± 5.0%

###

# assay summary: Phase solubility studies with HP-β-CD
# Type: physicochemical
# test parameters: aqueous buffer, thermodynamic from solid; 37 °C, pH 8.5 sodium borate buffer, without cyclodextrin; read-out: solubility without HP-β-CD (value in brackets) (converted)
experimental readout: solubility at 60 min (µM)
Give just the number in µM; leave the unit off.

Reference set (3 entries):
Q) State the recorded solubility at 60 min for this entry: COc1ccc(C2CC(=O)c3c(O)cc(O)cc3O2)cc1O (stereo not shown) [Hesperetin, 3′,5,7-Trihydroxy-4′-methoxyflavanone]
A) 98

Q) I'd like to know its solubility at 60 min. The molecule in question is COc1ccc(C2CC(=NNC(N)=S)c3c(O)cc(O)cc3O2)cc1O (stereo not shown) [HTSC]
A) 220

Q) Give the measured solubility at 60 min of COc1ccc(C2C/C(=N\NC(=O)c3ccncc3)c3c(O)cc(O)cc3O2)cc1O (racemic) [HIN] .
A) 1

Next item in the queue.
Q) Quick one: solubility at 60 min for COc1ccc(C2C/C(=N\NC(=O)c3ccccc3)c3c(O)cc(O)cc3O2)cc1O (racemic) [HHSB] ?
A) 5

Attribution: paper PMC10574185
